target or system: T1, human EphB2 (Homo sapiens, UniProt P29323)
T1 construct: a protein of the extracellular region of each human Eph receptor fused with the SEAP protein and the His tag; made in house; host or cells: Expi293F cells
T1 sequence (P29323 19-543 limits assumed): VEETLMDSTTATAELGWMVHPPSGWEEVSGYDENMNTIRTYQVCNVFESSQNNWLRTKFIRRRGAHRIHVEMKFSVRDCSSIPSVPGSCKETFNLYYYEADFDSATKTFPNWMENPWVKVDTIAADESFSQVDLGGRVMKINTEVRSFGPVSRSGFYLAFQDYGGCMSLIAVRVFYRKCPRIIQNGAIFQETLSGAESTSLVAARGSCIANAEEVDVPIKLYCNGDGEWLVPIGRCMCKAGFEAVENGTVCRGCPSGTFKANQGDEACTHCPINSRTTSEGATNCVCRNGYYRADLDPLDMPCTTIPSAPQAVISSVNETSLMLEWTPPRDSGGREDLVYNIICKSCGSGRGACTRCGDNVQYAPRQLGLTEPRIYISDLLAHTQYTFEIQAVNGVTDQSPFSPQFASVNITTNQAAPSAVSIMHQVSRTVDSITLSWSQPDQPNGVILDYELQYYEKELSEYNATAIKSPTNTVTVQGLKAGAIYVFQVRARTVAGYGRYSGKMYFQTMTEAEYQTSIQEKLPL
protocol notes: Selectivity ELISA of humanized antibodies for human Eph receptor
Format: binding
test settings: coated protein 1 nM
Hi there, I'd appreciate the recorded hEphB2-SEAP-: absorbance at 450 nm, percentage with respect to hEphA4-SEAP-His as 100% for every entry that follows.
Could you give me the number in %? Just the number is fine.

Answer with the recorded hEphB2-SEAP-: absorbance at 450 nm, percentage with respect to hEphA4-SEAP-His as 100% for the molecule listed here: 91 (antibody, V domains shown, constant regions without entry; synthetic humanized antibody light chain variable region sequence; synthetic humanized antibody heavy chain variable region sequence) VL: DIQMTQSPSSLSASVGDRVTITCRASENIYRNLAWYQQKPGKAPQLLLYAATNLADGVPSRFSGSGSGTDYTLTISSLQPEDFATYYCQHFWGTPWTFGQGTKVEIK VH: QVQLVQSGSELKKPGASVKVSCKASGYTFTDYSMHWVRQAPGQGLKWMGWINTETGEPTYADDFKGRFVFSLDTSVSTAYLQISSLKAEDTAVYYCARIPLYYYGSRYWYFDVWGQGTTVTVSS
7.0

Answer with the recorded hEphB2-SEAP-: absorbance at 450 nm, percentage with respect to hEphA4-SEAP-His as 100% for the molecule listed here: 67 (antibody, V domains shown, synthetic humanized antibody heavy chain variable region sequence; synthetic humanized antibody light chain variable region sequence) VH: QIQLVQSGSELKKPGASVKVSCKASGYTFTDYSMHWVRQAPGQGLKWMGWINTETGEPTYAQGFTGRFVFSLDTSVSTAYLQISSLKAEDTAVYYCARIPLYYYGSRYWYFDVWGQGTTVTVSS VL: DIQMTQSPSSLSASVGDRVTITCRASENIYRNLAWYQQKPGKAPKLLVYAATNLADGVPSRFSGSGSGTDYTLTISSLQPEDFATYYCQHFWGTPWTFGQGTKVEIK
4.7
